Where do the numbers come from? From PubChem BioAssay (EPA / NIEHS).

Experiment: APR_HepG2_MitoticArrest_1hr: Apredica 1-hour HepG2 Assay for Mitotic Arrest (AID 2282672)
Conditions: high-content imaging, actives raise or lower the signal
Activity calls are given as the source filed them. How the source made its calls: active means hit-call score of the fitted dose curve at least 0.9, where 1 is the maximum; inactive means score below 0.9.
Respond using exactly one of the listed classes: active, inactive

Field: example entries. Status: answers known.
> print(dat)
                                   molecule  label.class
1            COP(=S)(OC)Oc1nc(Cl)c(Cl)cc1Cl     inactive
2                                  CNC(=S)S     inactive
3  COC(=O)C(C)Oc1ccc(Oc2ccc(Cl)cc2Cl)cc1 (stereo unspecified)     inactive
4  COc1nc(C)nc(NC(=O)NS(=O)(=O)c2ccccc2CCC(F)(F)F)n1     inactive
5  CCOC(=O)CC(SP(=S)(OC)OC)C(=O)OCC (stereo unspecified)     inactive

Hello, I am checking results. What call was entered for `COc1cnc(OC)n2nc(NS(=O)(=O)c3c(OCC(F)F)cccc3C(F)(F)F)nc12` ?
inactive

Hello, I am checking results. What call was entered for `CNC(=O)ON=CC(C)(C)SC` ?
inactive

Hello, I am checking results. What call was entered for COP(N)(=O)SC (stereo unspecified) ?
inactive

Hello, I am checking results. What call was entered for C#CCOS(=O)OC1CCCCC1Oc1ccc(C(C)(C)C)cc1 (stereo unspecified) ?
inactive

Hello, I am checking results. What call was entered for `Cc1cc(Cl)ccc1OCC(=O)O` ?
inactive

Hello, I am checking results. What call was entered for `CCCCOC(=O)c1ccccc1C(=O)OCCCC` ?
inactive

Hello, I am checking results. What call was entered for Cc1c(F)c(F)c(COC(=O)C2C(/C=C(\Cl)C(F)(F)F)C2(C)C)c(F)c1F (stereo unspecified) ?
inactive

Hello, I am checking results. What call was entered for `CCOc1cc(Oc2ccc(C(F)(F)F)cc2Cl)ccc1[N+](=O)[O-]` ?
inactive

Hello, I am checking results. What call was entered for `CCNc1nc(Cl)nc(NCC)n1` ?
inactive

Hello, I am checking results. What call was entered for `CCNc1nc(Cl)nc(NC(C)C)n1` ?
inactive

----------
Test: ATG_EGR_CIS: Attagene CIS-FACTORIAL HepG2 Assay for human Early Growth Response 1 (EGR1) (AID 2282938)
Conditions: HepG2 Attagene CIS-FACTORIAL EGR reporter mRNA; actives raise or lower the signal
Active and inactive are the calls of the source. How the source made its calls: active means hit-call score of the fitted dose curve at least 0.9, where 1 is the maximum; inactive means score below 0.9.
Respond using exactly one of the listed classes: Yes for active, No for inactive

Field: example entries. Status: answers known.
> print(dat)
                                   molecule  label.class
1  CC(C)(C)c1ccc(CSc2cnn(C(C)(C)C)c(=O)c2Cl)cc1          Yes
2  CC1COC(Cn2cncn2)(c2ccc(Oc3ccc(Cl)cc3)cc2Cl)O1 (configuration not stated)           No
3         CCCCNC(=O)n1c(NC(=O)OC)nc2ccccc21           No

Hello, I am checking results. What call was entered for `CC(C)Oc1cc(-n2nc(C(C)(C)C)oc2=O)c(Cl)cc1Cl` ?
No

Hello, I am checking results. What call was entered for `O=C(O)COc1nc(Cl)c(Cl)cc1Cl` ?
No

Hello, I am checking results. What call was entered for `COc1nc(C)nc(NC(=O)NS(=O)(=O)c2ccccc2Cl)n1` ?
No

Hello, I am checking results. What call was entered for C=CC1(C)OC(=O)N(c2cc(Cl)cc(Cl)c2)C1=O (configuration not stated) ?
No
